assay summary: Brain to plasma ratio determination in male C57BL6 mouse
Assay type: in vivo, Male C57BL6 mice
condition notes: C57BL6, plasma, 3 mg/kg PO, 2.0 h post-dose, read-out: plasma concentration
measured parameter: concentration at 2 h (ng/mL)

> print(dat)
                                   compound  val
1  C[C@@H]1CCCN1CCc1ccc(-c2ccc(CCC(=O)O)cc2)cc1 [Compound 3]  619

---

assay summary: Brain to plasma ratio determination in male C57BL6 mouse
Assay type: in vivo, Male C57BL6 mice
condition notes: C57BL6, brain, 3 mg/kg PO, 0.5 h post-dose, read-out: brain concentration
measured parameter: concentration at 0.5 h (ng/g)

> print(dat)
                            chemical.smiles  unit.text   val
1  C[C@@H]1CCCN1CCc1ccc(-c2ccc(CCC(=O)O)cc2)cc1       ng/g  39.8

---

assay summary: Brain to plasma ratio determination in male C57BL6 mouse
Type: in vivo, Male C57BL6 mice
condition notes: C57BL6, brain/plasma, 3 mg/kg PO, 0.5 h post-dose
measured parameter: Kp at 0.5 h

> print(dat)
                            chemical.smiles   val
1  C[C@@H]1CCCN1CCc1ccc(-c2ccc(CCC(=O)O)cc2)cc1  0.04

---

assay summary: Brain to plasma ratio determination in male C57BL6 mouse
Type: in vivo, Male C57BL6 mice
condition notes: C57BL6, plasma, intraperitoneal, 3 mg/kg IP, 0.5 h post-dose, read-out: plasma concentration
measured parameter: concentration at 0.5 h (ng/mL)

> print(dat)
                                   compound      measured.parameter  unit.text   val
1  C[C@@H]1CCCN1CCc1ccc(-c2ccc(CCC(=O)O)cc2)cc1 [Compound 3]  concentration at 0.5 h      ng/mL  1350

---

target or system: human H3 receptor (Homo sapiens (Human))
Sequence (Q9Y5N1 whole entry): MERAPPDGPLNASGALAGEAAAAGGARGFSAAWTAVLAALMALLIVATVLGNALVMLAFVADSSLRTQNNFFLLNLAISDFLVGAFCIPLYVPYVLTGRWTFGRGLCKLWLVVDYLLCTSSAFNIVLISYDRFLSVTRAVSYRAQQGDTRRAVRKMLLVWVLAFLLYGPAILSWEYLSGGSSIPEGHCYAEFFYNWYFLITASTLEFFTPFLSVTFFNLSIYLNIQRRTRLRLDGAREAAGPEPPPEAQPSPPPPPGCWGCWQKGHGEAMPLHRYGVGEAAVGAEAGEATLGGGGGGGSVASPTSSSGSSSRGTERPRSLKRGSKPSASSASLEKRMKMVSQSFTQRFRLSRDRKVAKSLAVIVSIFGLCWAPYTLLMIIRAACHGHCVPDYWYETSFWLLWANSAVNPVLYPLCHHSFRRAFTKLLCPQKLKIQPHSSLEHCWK
assay summary: Human H3 receptor HTRF cAMP assay
condition notes: HEK293 cells expressing the human H3 receptor, forskolin 2 μM; read-out: IC50 H3R
pIC50: −log10 of the molar value.
measured parameter: pIC50

> print(dat)
                                    compound                          target.or.system  measured.parameter   val
 1  CCOC(=O)CCc1ccc(-c2ccc(CCN3CCC[C@H]3C)cc2)cc1  human H3 receptor (Homo sapiens (Human))               pIC50  8.74
 2  C[C@@H]1CCCN1CCc1ccc(-c2ccc(CCc3nnn[nH]3)cc2)cc1  human H3 receptor (Homo sapiens (Human))               pIC50  8.16
 3  C[C@H](NC(=O)CCc1ccc(-c2ccc(CCN3CCC[C@H]3C)cc2)cc1)C(=O)OC(C)(C)C  human H3 receptor (Homo sapiens (Human))               pIC50  8.68
 4  COC(=O)CNC(=O)CCc1ccc(-c2ccc(CCN3CCC[C@H]3C)cc2)cc1  human H3 receptor (Homo sapiens (Human))               pIC50  9.00
 5  C[C@@H]1CCCN1CCc1ccc(-c2ccc(CC(=O)O)cc2)cc1  human H3 receptor (Homo sapiens (Human))               pIC50  8.09
 6  COC(=O)C1(c2ccc(-c3ccc(CCN4CCC[C@H]4C)cc3)cc2)CCCC1  human H3 receptor (Homo sapiens (Human))               pIC50  8.48
 7  C[C@@H]1CCCN1CCc1ccc(-c2ccc(CCC(=O)O)cc2)cc1  human H3 receptor (Homo sapiens (Human))               pIC50  8.60
 8  C[C@@H]1CCCN1CCc1ccc(-c2ccc(C(=O)NCCC(=O)O)cc2)cc1  human H3 receptor (Homo sapiens (Human))               pIC50  8.60
 9  C[C@@H]1CCCN1CCc1ccc(-c2ccc(Cc3nnn[nH]3)cc2)cc1  human H3 receptor (Homo sapiens (Human))               pIC50  9.11
10  COC(=O)CCc1ccc(-c2ccc(CCN3CCC[C@H]3C)cc2)cc1  human H3 receptor (Homo sapiens (Human))               pIC50  8.96
11  C[C@@H]1CCCN1CCc1ccc(-c2ccc(CCC(=O)NC(C)(C)C(=O)OC(C)(C)C)cc2)cc1  human H3 receptor (Homo sapiens (Human))               pIC50  9.02
12  C[C@@H]1CCCN1CCc1ccc(-c2ccc(CCCC(=O)O)cc2)cc1  human H3 receptor (Homo sapiens (Human))               pIC50  9.01
13  CCOC(=O)COCc1ccc(-c2ccc(CCN3CCC[C@H]3C)cc2)cc1  human H3 receptor (Homo sapiens (Human))               pIC50  9.17
14  C[C@@H]1CCCN1CCc1ccc(-c2ccc(CCn3cnnn3)cc2)cc1  human H3 receptor (Homo sapiens (Human))               pIC50  9.03
15  C[C@@H]1CCCN1CCc1ccc(-c2ccc(C(C)(C)C(=O)O)cc2)cc1  human H3 receptor (Homo sapiens (Human))               pIC50  8.51
16  C[C@@H]1CCCN1CCc1ccc(-c2ccc(C(=O)O)cc2)cc1  human H3 receptor (Homo sapiens (Human))               pIC50  8.42
17  CCOC(=O)C1CCN(C(=O)CCc2ccc(-c3ccc(CCN4CCC[C@H]4C)cc3)cc2)CC1  human H3 receptor (Homo sapiens (Human))               pIC50  9.02
18  COC(=O)CCCNC(=O)C1(c2ccc(-c3ccc(CCN4CCC[C@H]4C)cc3)cc2)CCCC1  human H3 receptor (Homo sapiens (Human))               pIC50  8.82
19  C[C@@H]1CCCN1CCc1ccc(-c2ccc(CCC(=O)NCC(=O)OC(C)(C)C)cc2)cc1  human H3 receptor (Homo sapiens (Human))               pIC50  8.42
20  C[C@@H]1CCCN1CCc1ccc(-c2ccc(C3(C(=O)NCCCC(=O)O)CCCC3)cc2)cc1  human H3 receptor (Homo sapiens (Human))               pIC50  8.68
21  C[C@@H]1CCCN1CCc1ccc(-c2ccc(COCC(=O)O)cc2)cc1  human H3 receptor (Homo sapiens (Human))               pIC50  8.26
22  C[C@H](NC(=O)CCc1ccc(-c2ccc(CCN3CCC[C@H]3C)cc2)cc1)C(=O)O  human H3 receptor (Homo sapiens (Human))               pIC50  9.10
23  CCOC(=O)C1CCCCC1NC(=O)C1(c2ccc(-c3ccc(CCN4CCC[C@H]4C)cc3)cc2)CCCC1 (stereo in doubt)  human H3 receptor (Homo sapiens (Human))               pIC50  8.52
24  COC(=O)CNC(=O)C1(c2ccc(-c3ccc(CCN4CCC[C@H]4C)cc3)cc2)CCCC1  human H3 receptor (Homo sapiens (Human))               pIC50  8.72
25  C[C@@H]1CCCN1CCc1ccc(-c2ccc(CCn3ncnn3)cc2)cc1  human H3 receptor (Homo sapiens (Human))               pIC50  8.92
26  COC(=O)C(C)(C)NC(=O)c1ccc(-c2ccc(CCN3CCC[C@H]3C)cc2)cc1  human H3 receptor (Homo sapiens (Human))               pIC50  8.92

---

assay summary: Brain to plasma ratio determination in male C57BL6 mouse
Assay type: in vivo, Male C57BL6 mice
condition notes: C57BL6, brain/plasma, 3 mg/kg PO, 2.0 h post-dose
measured parameter: Kp at 2 h

> print(dat)
                            chemical.smiles   val
1  C[C@@H]1CCCN1CCc1ccc(-c2ccc(CCC(=O)O)cc2)cc1  0.05

---

assay summary: Brain to plasma ratio determination in male C57BL6 mouse
Assay type: in vivo, Male C57BL6 mice
condition notes: C57BL6, brain/plasma, 3 mg/kg IP, independent of time
measured parameter: Kp

> print(dat)
                                   compound    val
1  C[C@@H]1CCCN1CCc1ccc(-c2ccc(CCC(=O)O)cc2)cc1 [Compound 3]  ~0.05

---

assay summary: Brain to plasma ratio determination in male C57BL6 mouse
Assay type: in vivo, Male C57BL6 mice
condition notes: C57BL6, plasma, 3 mg/kg PO, 0.5 h post-dose, read-out: plasma concentration
Method: Male C57BL6 mice were administered Compound 3 at 3 mg/kg by either intraperitoneal injection (IP) or oral gavage (PO). Plasma and brain samples were collected at 0.5 and 2.0 h post-dose. Blood samples were collected via eye bleed, followed by decapitation and extraction of the brain from the cranial cavity. […] Compound 3 plasma and brain concentrations were determined by LC/MS/MS. The lower limit of quantitation (i.e., LLQ) was 25.0 and 3.0 ng/mL for plasma and brain, respectively.
measured parameter: concentration at 0.5 h

> print(dat)
                                   compound         val
1  C[C@@H]1CCCN1CCc1ccc(-c2ccc(CCC(=O)O)cc2)cc1 [Compound 3]  1080 ng/mL
